Recorded values, source patent US8901118B2.

targetDesc: CYP2C9 (Homo sapiens)
Sequence (P11712 whole entry): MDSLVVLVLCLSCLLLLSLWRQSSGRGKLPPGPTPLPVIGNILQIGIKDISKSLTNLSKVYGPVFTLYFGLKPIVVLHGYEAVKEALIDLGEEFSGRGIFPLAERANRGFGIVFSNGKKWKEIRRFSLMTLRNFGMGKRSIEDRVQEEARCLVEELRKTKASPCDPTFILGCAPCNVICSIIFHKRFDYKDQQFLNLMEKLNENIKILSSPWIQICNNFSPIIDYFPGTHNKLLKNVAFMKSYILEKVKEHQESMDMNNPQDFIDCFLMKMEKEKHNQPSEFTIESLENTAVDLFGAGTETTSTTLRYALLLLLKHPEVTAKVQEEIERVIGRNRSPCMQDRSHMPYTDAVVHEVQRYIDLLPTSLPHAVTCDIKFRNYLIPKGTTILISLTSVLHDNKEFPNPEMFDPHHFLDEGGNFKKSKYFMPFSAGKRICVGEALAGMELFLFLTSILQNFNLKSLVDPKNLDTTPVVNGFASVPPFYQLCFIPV
pIC50: −log10 of the molar value.
metricName: pIC50

# testSmiles, targetDesc, valueMeasured
data = [
    ("COc1ccc(Nc2ccc(C(=O)c3c[nH]c4ncnc(NC5CCC5)c34)c(F)n2)cn1", "CYP2C9 (Homo sapiens)", "< 5.00"),
    ("CCc1ccc(Nc2ccc(C(=O)c3c[nH]c4ncnc(NCCOC)c34)c(F)n2)cn1", "CYP2C9 (Homo sapiens)", "< 5.00"),
    ("O=C(c1ccc(Nc2ccc(C3CC3)nc2)nc1F)c1c[nH]c2ncccc12", "CYP2C9 (Homo sapiens)", "5.00 to 5.30"),
]

====

targetDesc: BCR-FMS BaF3 cells (Homo sapiens)
Construct: fused on or other part: P11274 (Breakpoint cluster region protein)
Sequence (P07333 582-910): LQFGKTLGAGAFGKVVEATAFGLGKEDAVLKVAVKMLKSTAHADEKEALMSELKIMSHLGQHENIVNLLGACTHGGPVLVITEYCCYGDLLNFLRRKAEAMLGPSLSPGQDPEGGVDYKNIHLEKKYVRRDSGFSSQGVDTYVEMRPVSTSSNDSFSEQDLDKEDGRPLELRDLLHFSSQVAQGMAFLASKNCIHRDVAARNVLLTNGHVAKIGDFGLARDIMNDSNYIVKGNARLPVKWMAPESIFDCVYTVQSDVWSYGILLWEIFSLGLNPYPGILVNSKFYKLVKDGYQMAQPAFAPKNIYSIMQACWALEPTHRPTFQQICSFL
procedureSummary: BaF3 BCR-FMS cell proliferation assay (ATPlite)
conditionLabel: read-out: Inhibition of Cell Proliferation IC50, BCR/BaF3 Fms
metricName: IC50

# molecule, valueMeasured
measured = [
    ("COc1ccc(Nc2ncc(Cc3c[nH]c4ncc(C)cc34)cn2)cc1F [Compound P-3023]", "< 100 nM"),
    ("Cc1cnc2[nH]cc(Cc3cnc(Nc4ccc(C(F)(F)F)nc4)nc3)c2c1 [Compound P-3018]", "< 100 nM"),
    ("CCn1ccc(Nc2ncc(Cc3c[nH]c4ncc(C)cc34)cn2)n1 [Compound P-3035]", "< 100 nM"),
    ("CC(C)Nc1ncnc2[nH]cc(C(=O)c3ccc(NC4CCCCC4)nc3Cl)c12 [Compound P-4109]", "< 100 nM"),
    ("CCc1ccc(Nc2ccc(C(=O)c3c[nH]c4ncnc(C5CC5)c34)c(F)n2)cn1 [Compound P-4029]", "< 100 nM"),
    ("CCc1ccc(Nc2ccc(C(=O)c3c[nH]c4ncnc(NCC(C)C)c34)c(F)n2)cn1 [Compound P-4121]", "< 10 nM"),
    ("COc1ccc(Nc2ccc(Cc3c[nH]c4ncc(C)cc34)c(F)n2)cn1 [Compound P-3019]", "< 10 nM"),
    ("COc1ccc(Nc2ccc(C(=O)c3c[nH]c4ncnc(N5CCCCC5)c34)c(F)n2)cn1 [Compound P-4069]", "> 1000 nM"),
]

====

targetDesc: BCR-KIT BaF3 cells (Homo sapiens)
Construct: fused on or other part: P11274 (Breakpoint cluster region protein)
Sequence (P10721 589-937): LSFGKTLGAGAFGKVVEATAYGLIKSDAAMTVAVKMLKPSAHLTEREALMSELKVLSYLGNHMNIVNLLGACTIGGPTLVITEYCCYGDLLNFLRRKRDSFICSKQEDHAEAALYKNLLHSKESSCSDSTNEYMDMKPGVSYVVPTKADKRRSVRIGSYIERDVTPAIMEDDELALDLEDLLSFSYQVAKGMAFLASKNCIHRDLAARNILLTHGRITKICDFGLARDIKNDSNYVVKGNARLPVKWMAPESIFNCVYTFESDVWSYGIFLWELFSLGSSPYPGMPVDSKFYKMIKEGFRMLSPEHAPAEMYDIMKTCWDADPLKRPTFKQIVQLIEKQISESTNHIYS
procedureSummary: BaF3 BCR-KIT cell proliferation assay (ATPlite)
conditionLabel: read-out: Inhibition of Cell Proliferation IC50, BCR/BaF3 Kit

# molecule, targetDesc, IC50
records = [
    ("CCOc1ccc(Nc2ccc(C(=O)c3c[nH]c4ncnc(C5CC5)c34)c(F)n2)cn1 [Compound P-4027]", "BCR-KIT BaF3 cells (Homo sapiens)", "< 1000 nM"),
    ("Cc1cnc2[nH]cc(Cc3cnc(Nc4ccc(C(C)(C)C)cc4)nc3)c2c1 [Compound P-3030]", "BCR-KIT BaF3 cells (Homo sapiens)", "< 10 nM"),
    ("CCOc1ncnc2[nH]cc(Cc3ccc(Nc4ccc(OC)nc4)nc3F)c12 [Compound P-4018]", "BCR-KIT BaF3 cells (Homo sapiens)", "< 1000 nM"),
]

====

Measured IC50 accompanies every entry in the list below.
targetDesc: TrkA kinase (Homo sapiens)
Sequence (P04629 33-796): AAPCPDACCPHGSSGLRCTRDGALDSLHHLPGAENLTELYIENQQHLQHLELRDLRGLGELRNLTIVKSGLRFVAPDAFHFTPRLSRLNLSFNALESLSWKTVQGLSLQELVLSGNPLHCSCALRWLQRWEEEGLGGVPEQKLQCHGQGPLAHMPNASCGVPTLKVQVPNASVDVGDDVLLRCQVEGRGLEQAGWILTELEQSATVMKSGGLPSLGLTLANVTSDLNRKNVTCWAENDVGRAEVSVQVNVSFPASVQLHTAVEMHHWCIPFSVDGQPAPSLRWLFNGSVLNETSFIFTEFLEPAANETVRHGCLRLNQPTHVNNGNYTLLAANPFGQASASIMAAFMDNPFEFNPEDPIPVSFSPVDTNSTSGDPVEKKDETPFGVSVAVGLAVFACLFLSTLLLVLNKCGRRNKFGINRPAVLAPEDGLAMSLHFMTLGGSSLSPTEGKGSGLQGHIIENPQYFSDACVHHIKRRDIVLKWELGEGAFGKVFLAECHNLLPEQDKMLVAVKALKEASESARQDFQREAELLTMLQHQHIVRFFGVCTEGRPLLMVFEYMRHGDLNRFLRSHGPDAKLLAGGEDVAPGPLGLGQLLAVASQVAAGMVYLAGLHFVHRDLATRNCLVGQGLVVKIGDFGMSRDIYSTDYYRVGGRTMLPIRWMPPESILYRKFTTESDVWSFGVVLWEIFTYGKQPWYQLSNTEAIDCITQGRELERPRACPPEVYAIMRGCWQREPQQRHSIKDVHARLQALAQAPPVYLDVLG
metricName: IC50

# compound, targetDesc, valueMeasured
data = [
    ("CCn1cc(Nc2ncc(Cc3c[nH]c4ncc(C)cc34)cn2)cn1 [Compound P-3036]", "TrkA kinase (Homo sapiens)", "< 1000 nM"),
    ("CCc1ccc(Nc2ccc(C(=O)c3c[nH]c4ncc(C)cc34)c(F)n2)cn1 [Compound P-3049]", "TrkA kinase (Homo sapiens)", "< 10 nM"),
    ("Fc1nc(Nc2ccc(C3CC3)nc2)ccc1Cc1c[nH]c2ncccc12 [Compound P-3053]", "TrkA kinase (Homo sapiens)", "< 100 nM"),
    ("O=C(c1ccc(Nc2ccc(C(F)(F)F)nc2)nc1F)c1c[nH]c2ncnc(NC3CC3)c12 [Compound P-4091]", "TrkA kinase (Homo sapiens)", "< 10 nM"),
    ("Fc1nc(Nc2ccc(C3CC3)nc2)ccc1Cc1c[nH]c2ncnc(NCC(F)(F)F)c12 [Compound P-4130]", "TrkA kinase (Homo sapiens)", "< 10 nM"),
    ("CCNc1ncnc2[nH]cc(C(=O)c3ccc(Nc4ccc(OC)nc4)nc3F)c12 [Compound P-4081]", "TrkA kinase (Homo sapiens)", "< 10 nM"),
    ("Fc1ccc(Nc2ncc(Cc3c[nH]c4ncc(Cl)cc34)cn2)cc1 [Compound P-3012]", "TrkA kinase (Homo sapiens)", "> 1000 nM"),
    ("CCn1cc(Nc2ccc(Cc3c[nH]c4ncnc(OC)c34)c(F)n2)cn1 [Compound P-4011]", "TrkA kinase (Homo sapiens)", "< 1000 nM"),
    ("COc1ccc(Nc2ccc(C(=O)c3c[nH]c4ncnc(N5CCCCC5)c34)c(F)n2)cn1 [Compound P-4069]", "TrkA kinase (Homo sapiens)", "< 100 nM"),
    ("Cc1cncc(Nc2ccc(C(=O)c3c[nH]c4ncnc(C5CC5)c34)c(F)n2)c1 [Compound P-4039]", "TrkA kinase (Homo sapiens)", "< 100 nM"),
    ("CNc1ncnc2[nH]cc(C(=O)c3ccc(Nc4cncc(OC)c4)nc3F)c12 [Compound P-4108]", "TrkA kinase (Homo sapiens)", "< 100 nM"),
    ("O=C(c1ccc(NC2CCC(F)(F)CC2)nc1)c1c[nH]c2ncnc(NC3CC3)c12 [Compound P-4088]", "TrkA kinase (Homo sapiens)", "< 10 nM"),
    ("CCOc1ncnc2[nH]cc(C(=O)c3ccc(Nc4ccc(OC)nc4)nc3F)c12 [Compound P-4025]", "TrkA kinase (Homo sapiens)", "< 100 nM"),
    ("COCCOc1ncnc2[nH]cc(Cc3ccc(Nc4ccc(C)nc4)nc3F)c12 [Compound P-4015]", "TrkA kinase (Homo sapiens)", "> 1000 nM"),
    ("CCc1ccc(Nc2ccc(C(=O)c3c[nH]c4ncnc(NCC(C)(C)O)c34)c(F)n2)cn1 [Compound P-4064]", "TrkA kinase (Homo sapiens)", "< 10 nM"),
    ("CCNc1ncnc2[nH]cc(C(=O)c3cnc(NC4CCC(F)(F)CC4)c(F)c3)c12 [Compound P-4051]", "TrkA kinase (Homo sapiens)", "< 10 nM"),
    ("Cc1cnc2[nH]cc(C(=O)c3ccc(Nc4ccc(C)nc4)nc3F)c2c1 [Compound P-3043]", "TrkA kinase (Homo sapiens)", "< 100 nM"),
    ("CCOc1ncnc2[nH]cc(Cc3ccc(Nc4ccc(Br)nc4)nc3F)c12 [Compound P-4020]", "TrkA kinase (Homo sapiens)", "< 10 nM"),
    ("CCc1ccc(Nc2ccc(C(=O)c3c[nH]c4ncnc(NC5CCCC5)c34)c(F)n2)cn1 [Compound P-4099]", "TrkA kinase (Homo sapiens)", "< 100 nM"),
    ("CC(C)Nc1ncnc2[nH]cc(C(=O)c3ccc(NC4CCCCC4)nc3F)c12 [Compound P-4101]", "TrkA kinase (Homo sapiens)", "< 100 nM"),
    ("Cc1ccc(Nc2ccc(C(=O)c3c[nH]c4ncnc(NCC5CC5)c34)c(F)n2)cn1 [Compound P-4113]", "TrkA kinase (Homo sapiens)", "< 10 nM"),
    ("CCc1ccc(Nc2ccc(C(=O)c3c[nH]c4ncnc(NC5CCC(F)(F)CC5)c34)c(F)n2)cn1 [Compound P-4096]", "TrkA kinase (Homo sapiens)", "< 100 nM"),
    ("CCc1ccc(Nc2ccc(Cc3c[nH]c4ncnc(OCCOC)c34)c(F)n2)cn1 [Compound P-4016]", "TrkA kinase (Homo sapiens)", "< 10 nM"),
    ("Cc1cnc2[nH]cc(Cc3cnc(Nc4cc(-c5ccc(F)cc5)n[nH]4)nc3)c2c1 [Compound P-3028]", "TrkA kinase (Homo sapiens)", "< 100 nM"),
    ("Cc1cnc2[nH]cc(Cc3cnc(Nc4ccc(C(C)(C)C)cc4)nc3)c2c1 [Compound P-3030]", "TrkA kinase (Homo sapiens)", "< 10 nM"),
    ("Cc1cnc2[nH]cc(Cc3cnc(Nc4ccc(S(C)(=O)=O)cc4)nc3)c2c1 [Compound P-3034]", "TrkA kinase (Homo sapiens)", "< 1000 nM"),
    ("CCCOc1ccc(Nc2ncc(Cc3c[nH]c4ncc(C)cc34)cn2)cc1 [Compound P-3024]", "TrkA kinase (Homo sapiens)", "< 1000 nM"),
    ("Cc1ccc(Nc2ccc(C(=O)c3c[nH]c4ncnc(C5CC5)c34)c(F)n2)cn1 [Compound P-4031]", "TrkA kinase (Homo sapiens)", "< 100 nM"),
]
